Would you mind telling me the reported half-life at 50 µM of each entry?
assay: Stability of dimers in culture medium (RPMI + 10% serum), HPLC; type: in vitro ADME, fetal calf; settings: 37° C., C0 =5×10^-5 M, read-out: t1/2 (time at the end of which half of the starting product has decomposed) (converted)
Numbers only, in h.

Use these answered entries as a reference point.
CC(=O)SCSP(=O)(OC[C@H]1O[C@@H](n2cc(C)c(=O)[nH]c2=O)C[C@@H]1O)O[C@H]1C[C@H](n2cc(C)c(=O)[nH]c2=O)O[C@@H]1CO (stereo partly drawn)
1
CC(=O)SCCSP(=O)(OC[C@H]1O[C@@H](n2cc(C)c(=O)[nH]c2=O)C[C@@H]1O)O[C@H]1C[C@H](n2cc(C)c(=O)[nH]c2=O)O[C@@H]1CO (stereo partly drawn)
7

Continue with the molecule presented below.
Exercise: Look up half-life at 50 µM of Cc1cn([C@H]2C[C@H](OP(=O)(OC[C@H]3O[C@@H](n4cc(C)c(=O)[nH]c4=O)C[C@@H]3O)SCOC(=O)C(C)(C)C)[C@@H](CO)O2)c(=O)[nH]c1=O (stereo partly drawn) and report it.
Solution: 6
